Each recorded value in this set is attributed to patent US20210388087A1.

- target: T1, Human CD3eg linker (human)
- T1 construct: Single-chain construct; also called recombinant human CD3
- T1 chain: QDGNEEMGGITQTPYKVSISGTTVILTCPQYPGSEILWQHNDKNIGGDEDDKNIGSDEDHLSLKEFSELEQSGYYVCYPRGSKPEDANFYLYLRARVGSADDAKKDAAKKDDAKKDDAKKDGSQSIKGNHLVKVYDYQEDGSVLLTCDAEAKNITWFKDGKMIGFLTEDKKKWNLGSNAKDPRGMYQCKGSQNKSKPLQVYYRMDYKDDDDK
- test_summary: SPR; fold vs parent H183/L072
Recorded fold change of affinity, one value per entry.
Report the value in fold with no unit label.

Examples with answers:
binder: H183/L072 VL Q24G (antibody, name in Kabat numbering, V domains shown) VH: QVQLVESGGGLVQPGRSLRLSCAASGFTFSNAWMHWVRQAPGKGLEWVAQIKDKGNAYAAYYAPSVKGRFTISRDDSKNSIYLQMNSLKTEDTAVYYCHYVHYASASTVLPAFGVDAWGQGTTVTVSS VL: DIVMTQSPLSLPVTPGEPASISCGASQELVHMNRNTYLHWYQQKPGQAPRLLIYKVSNRFPGVPDRFSGSGSGTDFTLKISRVEAEDVGVYYCAQGTSVPFTFGQGTKLEIK
value_units: fold
fold change of affinity: 1.2
--
binder: H183/L072 VL L33D (antibody, name in Kabat numbering, V domains shown) VH: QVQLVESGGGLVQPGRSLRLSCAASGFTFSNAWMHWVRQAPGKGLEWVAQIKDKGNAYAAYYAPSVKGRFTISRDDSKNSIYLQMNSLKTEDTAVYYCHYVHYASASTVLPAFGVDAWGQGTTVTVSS VL: DIVMTQSPLSLPVTPGEPASISCQASQELVHMNRNTYDHWYQQKPGQAPRLLIYKVSNRFPGVPDRFSGSGSGTDFTLKISRVEAEDVGVYYCAQGTSVPFTFGQGTKLEIK
value_units: fold
fold change of affinity: 0
--
binder: H183/L072 VL S26Y (antibody, name in Kabat numbering, V domains shown) VH: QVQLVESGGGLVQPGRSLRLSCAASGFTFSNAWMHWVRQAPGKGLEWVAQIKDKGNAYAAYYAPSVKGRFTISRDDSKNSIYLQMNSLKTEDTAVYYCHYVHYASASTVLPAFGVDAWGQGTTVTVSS VL: DIVMTQSPLSLPVTPGEPASISCQAYQELVHMNRNTYLHWYQQKPGQAPRLLIYKVSNRFPGVPDRFSGSGSGTDFTLKISRVEAEDVGVYYCAQGTSVPFTFGQGTKLEIK
value_units: fold
fold change of affinity: 0.4

[Q] GET /values?readout=fold change of affinity&item= H183/L072 VL S26R (antibody, name in Kabat numbering, V domains shown) VH: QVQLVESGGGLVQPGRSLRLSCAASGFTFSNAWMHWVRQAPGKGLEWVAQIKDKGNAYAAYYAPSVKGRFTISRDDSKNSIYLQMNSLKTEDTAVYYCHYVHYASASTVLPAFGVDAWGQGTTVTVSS VL: DIVMTQSPLSLPVTPGEPASISCQARQELVHMNRNTYLHWYQQKPGQAPRLLIYKVSNRFPGVPDRFSGSGSGTDFTLKISRVEAEDVGVYYCAQGTSVPFTFGQGTKLEIK
[A] 0.5

[Q] Look up fold change of affinity: H183/L072 VL Y32L (antibody, name in Kabat numbering, V domains shown) VH: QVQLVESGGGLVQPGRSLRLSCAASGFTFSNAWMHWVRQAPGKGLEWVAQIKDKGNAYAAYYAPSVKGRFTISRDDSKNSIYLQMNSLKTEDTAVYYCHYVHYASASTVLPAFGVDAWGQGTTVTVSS VL: DIVMTQSPLSLPVTPGEPASISCQASQELVHMNRNTLLHWYQQKPGQAPRLLIYKVSNRFPGVPDRFSGSGSGTDFTLKISRVEAEDVGVYYCAQGTSVPFTFGQGTKLEIK
[A] 0
